Where do these numbers come from? They come from PubChem BioAssay.

TEST_METHOD_NOTES: JHH-DIPG-1 glioma cell viability, MIPE5.0 library, CellTiter-Glo luminescence, qHTS (AID 1347067);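 also: cells exposed to compound for 48 hours before readout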
TEST_CONTEXT: JHH-DIPG-1 glioma viability, CellTiter-Glo ATP luminescence
Inconclusive results are not listed. Active and inactive are the calls of the source. The limit is not given here; nearly all actives have AC50 up to about 26 µM.
Outcome codes: 1 for active, 0 for inactive

CC(C)OC(=O)[C@H](C)N[P@](=O)(OC[C@H]1O[C@@H](n2ccc(=O)[nH]c2=O)[C@](C)(F)[C@@H]1O)Oc1ccccc1 : 1
Cn1ncc(Cl)c1-c1cc(C(=O)NC(CN)Cc2ccc(F)c(F)c2)oc1Cl (centres undefined) : 1
O=C(/C=C/c1ccc(CN(CCO)CCc2c[nH]c3ccccc23)cc1)NO : 1
NC(=O)c1cccc(-c2cccc(OC(=O)NC3CCCCC3)c2)c1 : 0
C=CC(=O)Nc1ccc(F)c(-c2ncnc3[nH]cc(C(=O)OCC)c23)c1 : 1
CN1CCN(c2ccc3nc(-c4cc(C(C)(C)C)c(OCCCC(=O)NCCCN=[N+]=[N-])c(C(C)(C)C)c4)[nH]c3c2)CC1 : 1
CN[C@@H](C)[C@H]1[C@H](O)C[C@@]2(C)[C@@H]3CC[C@H]4C(C)(C)[C@@H](NC)CC[C@@]45C[C@@]35CC[C@]12C : 0
Cc1cc(C(C)Nc2ccccc2)c2nc(N3CCOCC3)cc(=O)n2c1 (centres undefined) : 0
O=C1NC(=O)C(c2cnc3ccccn23)=C1c1cn2c3c(cc(F)cc13)CN(C(=O)N1CCCCC1)CC2 : 1

----------
TEST_METHOD_NOTES: JHH-DIPG-1 glioma cell viability, MIPE5.0 library, CellTiter-Glo luminescence, qHTS (AID 1347067);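 also: cells exposed to compound for 48 hours before readout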
TEST_CONTEXT: JHH-DIPG-1 glioma viability, CellTiter-Glo ATP luminescence
Records with an inconclusive call do not appear. Active and inactive are the calls of the source. The limit is not given here; nearly all actives have AC50 up to about 26 µM.
Outcome codes: label 1 for active, label 0 for inactive

O=C(Nc1ccccc1Br)N[C@@H]1CCN(c2ccc(C(F)(F)F)cn2)C1 : label 0
COc1ccc2c(C(=S)N(C)CC(=O)O)cccc2c1C(F)(F)F : label 0
C=CC(=O)Nc1cccc(Oc2nc(Nc3ccc(N4CCN(C)CC4)cc3)ncc2Cl)c1 : label 1
O=C(NO)c1cnc(N2C[C@H]3C[C@@H]2CN3c2cc(C(F)(F)F)ccn2)nc1 : label 1
CN1C(=O)[C@@H](NC(=O)c2n[nH]c(Cc3ccccc3)n2)COc2ccccc21 : label 0
NC(=O)Nc1cc(-c2ccc(CN3CCOCC3)cc2)sc1C(N)=O : label 1
COC1CCN(C(=O)c2cc(Cc3n[nH]c(=O)c4ccccc34)ccc2F)CC1 : label 0
Cn1cc(-c2c[nH]c3ncnc(N4CCOCC4)c23)cn1 : label 0
O=C(c1cncc(Br)c1)N1CCC(N2CCCC2)CC1 : label 1
Cc1cn([C@@H]2C[C@@H](O)[C@H](CO)O2)c(=O)[nH]c1=O : label 0

----------
TEST_METHOD_NOTES: drug combination growth inhibition, ovarian cancer – cell-based, oncology-focused library, rucaparib conditional, profiling panel (AID 1508598)
TEST_CONTEXT: patient-derived ovarian cancer cells, CellTiter-Glo viability, 144 h; at 0.0781 µM; OCI-P5x cells; without rucaparib
The source made the active and inactive calls.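 Rule for the calls: active = normalized viability below 100% at a tested concentration; inactive = the rest.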
Outcome codes: y for active, n for inactive

COc1cc(OC)c(/C=C/S(=O)(=O)Cc2ccc(OC)c(NCC(=O)O)c2)c(OC)c1 : y
CNC(=O)c1cc(Oc2ccc(NC(=O)Nc3cc(C(C)(C)C)nn3-c3ccc4ncccc4c3)c(F)c2)ccn1 : y
C=C(c1ccc(C(=O)O)cc1)c1cc2c(cc1C)C(C)(C)CCC2(C)C : n
Cc1ccc(C(=O)N(CCCN)[C@@H](c2nc3cc(Cl)ccc3c(=O)n2Cc2ccccc2)C(C)C)cc1 : y
CC(/C=C/C(=O)NO)=C\[C@@H](C)C(=O)c1ccc(N(C)C)cc1 : y
CC[C@@H]1C(=O)N(C)c2cnc(Nc3ccc(C(=O)NC4CCN(C)CC4)cc3OC)nc2N1C1CCCC1 : y
Cc1cnc(-c2ccccc2C(C)C)nc1NCc1ccc(-n2ccnn2)cc1 : y
CCN(CC)CCCCNc1ncc2cc(-c3cc(OC)cc(OC)c3)c(NC(=O)NC(C)(C)C)nc2n1 : n
COCCOc1nc(-c2ccc(Cl)c(Cl)c2)n(-c2ccc(NC(=O)CCl)cc2)n1 : y
Cc1cccc(-c2nn3c(c2-c2ccnc4ccc(C(N)=O)cc24)CCC3)n1 : n
Fc1cc(-c2cccc3ncc(-c4cnn(C5CCNCC5)c4)nc23)cc(F)c1CN1CCOCC1 : y
Nc1ccc(-c2ccc3ncc4ccc(=O)n(-c5cccc(C(F)(F)F)c5)c4c3c2)cn1 : y
Nc1ccn([C@@H]2O[C@H](CO)[C@@H](O)C2(F)F)c(=O)n1 : y
CN1CCN(c2nc(C3=C(c4c[nH]c5ccccc45)C(=O)NC3=O)c3ccccc3n2)CC1 : n
Cn1cnc(=N)c2[nH]cnc21 : n
CC[C@H](Nc1ncnc2nc[nH]c12)c1nc2cccc(F)c2c(=O)n1-c1ccccc1 : n
Nc1cccc2c1C(=O)N(C1CCC(=O)NC1=O)C2=O (centres undefined) : n
Cc1c(NC(=O)OC[C@@H]2COCCN2)cn2ncnc(Nc3ccc4c(cnn4Cc4cccc(F)c4)c3)c12 : y
O=C(c1cc(Cc2n[nH]c(=O)c3ccccc23)ccc1F)N1CCN(C(=O)C2CC2)CC1 : y
